Field: pIC50. Provide a value for each of the molecules that follow.
method.summary: Antiinflammatory activity in C57BL6/J mouse BV2 cells assessed as inhibition of LPS-induced nitric oxide production after 24 hrs by Griess assay
Assay type: functional, cell-based
experimental.setup: BV-2, 24 h
One number for each entry, as −log10 of the molar value.

# molecule, pIC50
measured = [
    ("CCOC(=O)/C=C/c1ccc(O)c(O)c1 [ETHYL CAFFEATE]", 5.60),
    ("C=C1C(=O)O[C@@H]2C=C(CCC(C)=O)[C@@H](C)CC[C@@H]12", 5.07),
]

Please examine the following record next.
[Q] Would you mind telling me what pIC50 value was observed for C=C1CC=C[C@]2(C)C[C@]3(O)OC(=O)C(C)C3=C[C@@H]12 (stereo partly specified) [HYDROXYLINDESTENOLIDE] ?
[A] 5.41

----------
method.summary: Cytotoxicity against African green monkey Vero cells assessed as growth inhibition by CPE assay
Type: cell-based
experimental.setup: chlorocebus sabaeus, read-out: TC50 (the source's name)
Field: CC50. Provide a value for each of the compounds that follow.
One number for each entry, in µM.

Here is how some compounds turned out for CC50.
# smiles.notation, CC50 [µM]
rows = [
    ("CCOC(=O)c1ccc(O)c(O)c1", 23.1),
    ("Cc1cc(CCCOc2c(C)cc(-c3noc(C(F)(F)F)n3)cc2C)on1", 40.5),
    ("C=C1C(=O)O[C@@H]2C=C(CCC(C)=O)[C@@H](C)CC[C@@H]12", 19.2),
    ("CC(=O)CCC1=CC[C@H]2[C@H](C[C@@H]1C)OC(=O)[C@@H]2C", 77.6),
    ("CC1=C2C[C@H]3[C@@]4(CO4)[C@H](O)C=C[C@]3(C)C[C@@H]2OC1=O", 69.3),
]

Please examine the following record next.
[Q] Would you mind telling me what CC50 value was observed for C=C1C(=O)O[C@H]2C[C@H](C)C(C=O)=CC[C@H]12 ?
[A] 69.3

----------
Test system: Coxsackievirus B3
method.summary: Antiviral activity against Coxsackievirus B3 infected in African green monkey Vero cells assessed as inhibition of virus-induced cytopathic effect
Format: functional, organism-based
experimental.setup: Enterovirus B
quantity: pIC50
Numbers only, as −log10 of the molar value.

Here is how some compounds turned out for pIC50.
# compound, quantity, numeric.result
rows = [
    ("NC(=O)c1ncn([C@@H]2O[C@H](CO)[C@@H](O)[C@H]2O)n1 [RIBAVIRIN]", "pIC50", 2.92),
    ("CCOC(=O)c1ccc(O)c(O)c1", "pIC50", 4.95),
]

[Q] For Coxsackievirus B3, provide pIC50 of CC1=C2C[C@H]3[C@@]4(CO4)[C@H](O)C=C[C@]3(C)C[C@@H]2OC1=O please.
[A] 4.72

----------
method.summary: Antiinflammatory activity in C57BL6/J mouse BV2 cells assessed as inhibition of LPS-induced nitric oxide production after 24 hrs by Griess assay
Type: functional, cell-based
experimental.setup: BV-2, 24 h
Field: IC50. Provide a value for each of the molecules that follow.

Here is how some molecules turned out for IC50.
# smiles.notation, IC50
rows = [
    ("CC(=C/C(=O)O)/C=C/[C@]1(O)[C@@]2(C)CO[C@]1(C)CC(=O)C2", "> 10 µM"),
    ("CC1=C2C[C@H]3[C@@]4(CO4)[C@H](O)C=C[C@]3(C)C[C@@H]2OC1=O", "> 10 µM"),
    ("C[C@H]1C[C@@H]2OC(=O)[C@H](C)[C@H]2CC=C1C=O", "> 10 µM"),
    ("C[C@H]1C[C@@H]2OC(=O)[C@H](C)[C@H]2C=CC1=O", "> 10 µM"),
    ("C=C1[C@H]2C[C@H]2[C@]2(C)CC(=O)C3=C(C)C(=O)O[C@@H]3[C@@H]12", "> 10 µM"),
]

Hi, could you look up IC50 for each item in my list?
1. COC(=O)CC1=CC[C@H]2[C@H](C[C@@H]1C)OC(=O)[C@H]2C
2. C=C1C(=O)O[C@H]2C[C@H](C)C(CCC(C)=O)=CC[C@H]12
3. C[C@@H]1C(=O)O[C@H]2C[C@H](C)C(C(=O)O)=CC[C@@H]21
4. CC(=O)/C=C/C1=CC[C@H]2[C@H](C[C@@H]1C)OC(=O)[C@@H]2C

[A]
1: > 10 µM; 2: 5.6 µM; 3: > 10 µM; 4: 3.7 µM

Values from ChEMBL document CHEMBL3593156
